// provenance: the emibetuzumab library of Makowski et al. (2022)

B1: VH:VL chains; a variant is named by its letters at X, in order (parent)
chain 1: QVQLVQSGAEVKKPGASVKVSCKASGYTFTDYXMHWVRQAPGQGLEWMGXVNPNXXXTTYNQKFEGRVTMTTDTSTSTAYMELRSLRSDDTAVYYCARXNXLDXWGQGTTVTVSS
chain 2: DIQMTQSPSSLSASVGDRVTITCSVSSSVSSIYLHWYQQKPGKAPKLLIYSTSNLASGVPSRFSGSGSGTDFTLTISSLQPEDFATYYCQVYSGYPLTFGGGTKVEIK

- Variants of: B1
- ASSAY_TEXT: yeast display scFab, FACS + sequencing
REPORTED_ENDPOINT: non-specific binding call

MUTATION_LIST: YKRGDDGD
REPORTED_ENDPOINT: non-specific binding call
ENDPOINT_RESULT: no binding
--
MUTATION_LIST: YKGKGSAV
REPORTED_ENDPOINT: non-specific binding call
ENDPOINT_RESULT: binds
--
MUTATION_LIST: DAKEGSLD
REPORTED_ENDPOINT: non-specific binding call
ENDPOINT_RESULT: no binding
--
MUTATION_LIST: YRAGASAV
REPORTED_ENDPOINT: non-specific binding call
ENDPOINT_RESULT: binds
--
MUTATION_LIST: YRARGYGV
REPORTED_ENDPOINT: non-specific binding call
ENDPOINT_RESULT: binds
--
MUTATION_LIST: VEKGGSGD
REPORTED_ENDPOINT: non-specific binding call
ENDPOINT_RESULT: no binding
--
MUTATION_LIST: VKERGAVA
REPORTED_ENDPOINT: non-specific binding call
ENDPOINT_RESULT: no binding
--
MUTATION_LIST: VEERDAGD
REPORTED_ENDPOINT: non-specific binding call
ENDPOINT_RESULT: no binding
--
MUTATION_LIST: FGGEGDGA
REPORTED_ENDPOINT: non-specific binding call
ENDPOINT_RESULT: binds
--
MUTATION_LIST: VRAGGDVF
REPORTED_ENDPOINT: non-specific binding call
ENDPOINT_RESULT: no binding
--
MUTATION_LIST: FRKGGAGS
REPORTED_ENDPOINT: non-specific binding call
ENDPOINT_RESULT: binds
--
MUTATION_LIST: YRERSSLD
REPORTED_ENDPOINT: non-specific binding call
ENDPOINT_RESULT: binds
--
MUTATION_LIST: SEGRGSGV
REPORTED_ENDPOINT: non-specific binding call
ENDPOINT_RESULT: no binding
--
MUTATION_LIST: FRGGDYGS
REPORTED_ENDPOINT: non-specific binding call
ENDPOINT_RESULT: binds
--
MUTATION_LIST: YEARNAGA
REPORTED_ENDPOINT: non-specific binding call
ENDPOINT_RESULT: no binding
--
MUTATION_LIST: YTGTSASD
REPORTED_ENDPOINT: non-specific binding call
ENDPOINT_RESULT: no binding
--
MUTATION_LIST: ARRGGSGF
REPORTED_ENDPOINT: non-specific binding call
ENDPOINT_RESULT: binds
--
MUTATION_LIST: VEGGGDWS
REPORTED_ENDPOINT: non-specific binding call
ENDPOINT_RESULT: no binding
--
MUTATION_LIST: YAAGGFAY
REPORTED_ENDPOINT: non-specific binding call
ENDPOINT_RESULT: binds
--
MUTATION_LIST: YTGTSSSA
REPORTED_ENDPOINT: non-specific binding call
ENDPOINT_RESULT: no binding
--
MUTATION_LIST: YKAGGSLF
REPORTED_ENDPOINT: non-specific binding call
ENDPOINT_RESULT: binds
--
MUTATION_LIST: YRAKGAVV
REPORTED_ENDPOINT: non-specific binding call
ENDPOINT_RESULT: binds
--
MUTATION_LIST: DARGGAVV
REPORTED_ENDPOINT: non-specific binding call
ENDPOINT_RESULT: no binding
--
MUTATION_LIST: YRGRGVGY
REPORTED_ENDPOINT: non-specific binding call
ENDPOINT_RESULT: binds
--
MUTATION_LIST: VKAGASAD
REPORTED_ENDPOINT: non-specific binding call
ENDPOINT_RESULT: binds
--
MUTATION_LIST: YRRGGSVA
REPORTED_ENDPOINT: non-specific binding call
ENDPOINT_RESULT: binds
--
MUTATION_LIST: DREEGAVV
REPORTED_ENDPOINT: non-specific binding call
ENDPOINT_RESULT: no binding
--
MUTATION_LIST: YRAEGSSS
REPORTED_ENDPOINT: non-specific binding call
ENDPOINT_RESULT: binds
--
MUTATION_LIST: YAGRGSAS
REPORTED_ENDPOINT: non-specific binding call
ENDPOINT_RESULT: no binding
--
MUTATION_LIST: DTGGGAGA
REPORTED_ENDPOINT: non-specific binding call
ENDPOINT_RESULT: no binding
--
MUTATION_LIST: YRKGGSWS
REPORTED_ENDPOINT: non-specific binding call
ENDPOINT_RESULT: binds
--
MUTATION_LIST: DTGTSAAF
REPORTED_ENDPOINT: non-specific binding call
ENDPOINT_RESULT: binds
--
MUTATION_LIST: FGTKGAWD
REPORTED_ENDPOINT: non-specific binding call
ENDPOINT_RESULT: binds
--
MUTATION_LIST: VAGKGVLD
REPORTED_ENDPOINT: non-specific binding call
ENDPOINT_RESULT: binds
--
MUTATION_LIST: DATGGSSA
REPORTED_ENDPOINT: non-specific binding call
ENDPOINT_RESULT: no binding
--
MUTATION_LIST: DEKGGSSA
REPORTED_ENDPOINT: non-specific binding call
ENDPOINT_RESULT: no binding
--
MUTATION_LIST: DRAGDSSA
REPORTED_ENDPOINT: non-specific binding call
ENDPOINT_RESULT: no binding
--
MUTATION_LIST: VEKEGDAD
REPORTED_ENDPOINT: non-specific binding call
ENDPOINT_RESULT: no binding
--
MUTATION_LIST: YAGRGDVD
REPORTED_ENDPOINT: non-specific binding call
ENDPOINT_RESULT: no binding
--
MUTATION_LIST: FKARGALV
REPORTED_ENDPOINT: non-specific binding call
ENDPOINT_RESULT: binds
--
MUTATION_LIST: DAARGSSV
REPORTED_ENDPOINT: non-specific binding call
ENDPOINT_RESULT: no binding
--
MUTATION_LIST: YKRGGSWD
REPORTED_ENDPOINT: non-specific binding call
ENDPOINT_RESULT: binds
--
MUTATION_LIST: FKEAGAVY
REPORTED_ENDPOINT: non-specific binding call
ENDPOINT_RESULT: binds
--
MUTATION_LIST: YRGRGFVA
REPORTED_ENDPOINT: non-specific binding call
ENDPOINT_RESULT: binds
--
MUTATION_LIST: YKRGDAWD
REPORTED_ENDPOINT: non-specific binding call
ENDPOINT_RESULT: no binding
--
MUTATION_LIST: YRKGGSGA
REPORTED_ENDPOINT: non-specific binding call
ENDPOINT_RESULT: binds
--
MUTATION_LIST: DTTGSAVV
REPORTED_ENDPOINT: non-specific binding call
ENDPOINT_RESULT: no binding
--
MUTATION_LIST: VTTKSDSV
REPORTED_ENDPOINT: non-specific binding call
ENDPOINT_RESULT: no binding
--
MUTATION_LIST: YRTRDSGV
REPORTED_ENDPOINT: non-specific binding call
ENDPOINT_RESULT: binds
--
MUTATION_LIST: FRGRGSVS
REPORTED_ENDPOINT: non-specific binding call
ENDPOINT_RESULT: binds
--
MUTATION_LIST: FRGRGALY
REPORTED_ENDPOINT: non-specific binding call
ENDPOINT_RESULT: binds
--
MUTATION_LIST: SAEATDLY
REPORTED_ENDPOINT: non-specific binding call
ENDPOINT_RESULT: no binding
--
MUTATION_LIST: FTRGADAV
REPORTED_ENDPOINT: non-specific binding call
ENDPOINT_RESULT: no binding
--
MUTATION_LIST: VREAADSF
REPORTED_ENDPOINT: non-specific binding call
ENDPOINT_RESULT: no binding
--
MUTATION_LIST: SEGGDAWV
REPORTED_ENDPOINT: non-specific binding call
ENDPOINT_RESULT: no binding
--
MUTATION_LIST: FRRRGAVD
REPORTED_ENDPOINT: non-specific binding call
ENDPOINT_RESULT: binds
--
MUTATION_LIST: YRRRGAWD
REPORTED_ENDPOINT: non-specific binding call
ENDPOINT_RESULT: binds
--
MUTATION_LIST: VTGEDDAA
REPORTED_ENDPOINT: non-specific binding call
ENDPOINT_RESULT: no binding
--
MUTATION_LIST: YRRRDSSA
REPORTED_ENDPOINT: non-specific binding call
ENDPOINT_RESULT: binds
--
MUTATION_LIST: DEGGTDVF
REPORTED_ENDPOINT: non-specific binding call
ENDPOINT_RESULT: no binding
--
MUTATION_LIST: VRAGDDAV
REPORTED_ENDPOINT: non-specific binding call
ENDPOINT_RESULT: no binding
--
MUTATION_LIST: YRTRSAWD
REPORTED_ENDPOINT: non-specific binding call
ENDPOINT_RESULT: binds
--
MUTATION_LIST: YRRGGSVF
REPORTED_ENDPOINT: non-specific binding call
ENDPOINT_RESULT: binds
--
MUTATION_LIST: SKAKGSAA
REPORTED_ENDPOINT: non-specific binding call
ENDPOINT_RESULT: binds
--
MUTATION_LIST: VATGDSLV
REPORTED_ENDPOINT: non-specific binding call
ENDPOINT_RESULT: no binding
--
MUTATION_LIST: YRTRSSGA
REPORTED_ENDPOINT: non-specific binding call
ENDPOINT_RESULT: binds
--
MUTATION_LIST: YRAGGAGY
REPORTED_ENDPOINT: non-specific binding call
ENDPOINT_RESULT: binds
--
MUTATION_LIST: FRAGGVGV
REPORTED_ENDPOINT: non-specific binding call
ENDPOINT_RESULT: binds
--
MUTATION_LIST: SRARDFGY
REPORTED_ENDPOINT: non-specific binding call
ENDPOINT_RESULT: no binding
--
MUTATION_LIST: YRARSFGD
REPORTED_ENDPOINT: non-specific binding call
ENDPOINT_RESULT: binds
--
MUTATION_LIST: VGETSYVD
REPORTED_ENDPOINT: non-specific binding call
ENDPOINT_RESULT: binds
--
MUTATION_LIST: VRTEDDAS
REPORTED_ENDPOINT: non-specific binding call
ENDPOINT_RESULT: no binding
--
MUTATION_LIST: YRRRGAWS
REPORTED_ENDPOINT: non-specific binding call
ENDPOINT_RESULT: binds
--
MUTATION_LIST: DGGENDVF
REPORTED_ENDPOINT: non-specific binding call
ENDPOINT_RESULT: no binding
--
MUTATION_LIST: VKRRDSGD
REPORTED_ENDPOINT: non-specific binding call
ENDPOINT_RESULT: binds
--
MUTATION_LIST: AARADAVA
REPORTED_ENDPOINT: non-specific binding call
ENDPOINT_RESULT: no binding
--
MUTATION_LIST: YRAGGYVA
REPORTED_ENDPOINT: non-specific binding call
ENDPOINT_RESULT: binds
--
MUTATION_LIST: FRGKSAAA
REPORTED_ENDPOINT: non-specific binding call
ENDPOINT_RESULT: binds
--
MUTATION_LIST: FRGGGSGS
REPORTED_ENDPOINT: non-specific binding call
ENDPOINT_RESULT: binds
--
MUTATION_LIST: YRKGSSGD
REPORTED_ENDPOINT: non-specific binding call
ENDPOINT_RESULT: binds
--
MUTATION_LIST: FAGGGDWV
REPORTED_ENDPOINT: non-specific binding call
ENDPOINT_RESULT: no binding
--
MUTATION_LIST: YAAGGDGV
REPORTED_ENDPOINT: non-specific binding call
ENDPOINT_RESULT: no binding
--
MUTATION_LIST: SKKRGSWD
REPORTED_ENDPOINT: non-specific binding call
ENDPOINT_RESULT: binds
--
MUTATION_LIST: YAARGAAV
REPORTED_ENDPOINT: non-specific binding call
ENDPOINT_RESULT: binds
--
MUTATION_LIST: VATRGFWD
REPORTED_ENDPOINT: non-specific binding call
ENDPOINT_RESULT: no binding
--
MUTATION_LIST: SEARSAVA
REPORTED_ENDPOINT: non-specific binding call
ENDPOINT_RESULT: no binding
--
MUTATION_LIST: YTGEDAVA
REPORTED_ENDPOINT: non-specific binding call
ENDPOINT_RESULT: no binding
--
MUTATION_LIST: YRRRGSWV
REPORTED_ENDPOINT: non-specific binding call
ENDPOINT_RESULT: binds
--
MUTATION_LIST: VRGGDDWA
REPORTED_ENDPOINT: non-specific binding call
ENDPOINT_RESULT: no binding
--
MUTATION_LIST: VKGRADSV
REPORTED_ENDPOINT: non-specific binding call
ENDPOINT_RESULT: no binding
--
MUTATION_LIST: VKGASDVA
REPORTED_ENDPOINT: non-specific binding call
ENDPOINT_RESULT: no binding
